Numbers sourced from patent US20260109707A1.

I'd be grateful if you could share measured GI50 for these entries.
Test system: T-Rex 293 cell line SC3 cells lacking increased expression of androgen receptor protein
Assay: Cellular growth inhibition assay, T-Rex 293 SC3 cells without doxycycline (CellTiter-Glo, 72 hours)
Assay type: cell-based
Settings: 72 h, T-Rex 293 cell line SC3 cells not exposed to doxycycline (lacking increased androgen receptor expression)

Use these answered entries as a reference point.
- Cc1sc2c(c1C)C(c1ccc(OC3CC4(CCN(c5ccc(C(=O)N[C@H]6CC[C@H](Oc7ccc(C#N)c(Cl)c7)CC6)nn5)CC4)C3)cc1)=N[C@@H](C)c1nnc(C)n1-2 [I-334]: 500 to 1500 nM
- Cc1sc2c(c1C)C(c1ccc(OC[C@@H]3CC[C@@]4(CCCN(c5ccc(C(=O)N[C@H]6CC[C@H](Oc7ccc(C#N)c(Cl)c7)CC6)nn5)C4)C3)cc1)=N[C@@H](Cc1ncco1)c1nnc(C)n1-2 [I-103]: < 500 nM
- Cc1sc2c(c1C)C(c1ccc(N3CCC4(CCN(c5ccc(C(=O)N[C@H]6CC[C@H](Oc7ccc(C#N)c(Cl)c7)CC6)nn5)C4)C3)cc1)=NC1(CC1)c1nnc(C)n1-2 (some centres unmarked) [I-521]: < 500 nM
- Cc1sc2c(c1C)C(c1ccc(N3C[C@@]4(C)CN(c5ccc(C(=O)N[C@H]6CC[C@H](Oc7ccc(C#N)c(Cl)c7)CC6)nn5)C[C@@]4(C)C3)cc1)=N[C@@H](C)c1nnc(C)n1-2 [I-704]: > 3000 nM

Lab note: next compound to report on.
Return reported GI50; argument: Cc1sc2c(c1C)C(c1ccccc1N1CC3(CCN(c4ccc(C(=O)N[C@H]5CC[C@H](Oc6ccc(C#N)c(Cl)c6)CC5)nn4)CC3)C1)=N[C@@H](C)c1nnc(C)n1-2 [I-751] < 500 nM

----------
I'd be grateful if you could share measured GI50 for these entries.
Test system: T-Rex 293 cell line SC3 cells lacking increased expression of androgen receptor protein
Assay: Cellular growth inhibition assay, T-Rex 293 SC3 cells without doxycycline (CellTiter-Glo, 72 hours)
Assay type: cell-based
Conditions: 72 h, T-Rex 293 cell line SC3 cells not exposed to doxycycline (lacking increased androgen receptor expression)

Use these answered entries as a reference point.
- Cc1sc2c(c1C)C(c1ccc(CCO[C@@H]3CCCN(c4ccc(C(=O)N[C@H]5CC[C@H](Oc6ccc(C#N)c(Cl)c6)CC5)nn4)C3)cc1)=N[C@@H](C)c1nnc(C)n1-2: > 3 µM
- Cc1sc2c(c1C)C(c1ccc(CCC(=O)N3CCN(c4ccc(C(=O)N[C@H]5CC[C@H](Oc6ccc(C#N)c(Cl)c6)CC5)nn4)CC3)cc1)=N[C@@H](Cc1ncco1)c1nnc(C)n1-2: 0.5 to 1.5 µM

Lab note: next compound to report on.
Return reported GI50; argument: `Cc1sc2c(c1C)C(c1ccc(OC3CN(CC4CCN(c5ccc(C(=O)N[C@H]6CC[C@H](Oc7ccc(C#N)c(Cl)c7)CC6)nn5)CC4)C3)cc1)=N[C@H](Cc1ncco1)c1nnc(C)n1-2` < 0.5 µM
